# Measurement Notes: Cytotoxicity test (MTT assay) in HepG2
# Assay type: cell-based, human
# Assay Context: human
Quantity: IC20 at 48 h

"c1ccc2c(c1)cc1ccc3cccc4ccc2c1c34" has a reported IC20 at 48 h of 8.35 µM

###

# Measurement Notes: Cytotoxicity test (MTT assay) in THLE-3
# Assay Context: human
Quantity: IC20 at 3 h (µM)
Please give a number only; it is taken to be in µM.

"CN(N=O)C(N)=O" has a reported IC20 at 3 h of 2090

O=[N+]([O-])c1cc[n+]([O-])c2ccccc12 [4-nitroquinoline-N-oxide] has a reported IC20 at 3 h of 0.83

These measurements were taken from patent US20110118127A1.
